Target: human Adenosine A3 receptor (Homo sapiens, UniProt P0DMS8)
Sequence (P0DMS8 1-318): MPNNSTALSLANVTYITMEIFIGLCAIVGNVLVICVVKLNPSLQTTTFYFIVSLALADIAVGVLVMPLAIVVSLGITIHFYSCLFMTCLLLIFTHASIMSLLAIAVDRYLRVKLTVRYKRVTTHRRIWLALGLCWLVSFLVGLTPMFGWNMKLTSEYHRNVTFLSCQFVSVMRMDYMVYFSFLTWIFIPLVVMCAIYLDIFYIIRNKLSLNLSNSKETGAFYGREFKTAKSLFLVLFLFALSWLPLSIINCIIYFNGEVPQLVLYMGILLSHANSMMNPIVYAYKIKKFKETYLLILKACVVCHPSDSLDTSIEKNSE
pKi: −log10 of the molar value. Structures can show the parent of a compound that is named as a salt.
metric: pKi

Noted for Cc1cc(-c2c(-c3cccc(C#N)c3)nn3ccc(C(=O)N[C@@H]4COC[C@@H]4O)nc23)cc(C)n1 : its pKi reads < 6.00

Noted for Cc1cc(-c2c(-c3cccc(C#N)c3)nn3ccc(N4CCOC[C@H]4C(=O)O)nc23)cc(Cl)n1 : its pKi reads 5.89

Noted for Cc1cc(-c2c(-c3cccc(C#N)c3)nn3ccc(C(=O)N4CCOCC4)nc23)cc(Cl)n1 : its pKi reads < 6.00

Noted for Cc1cc(-c2c(-c3cccc(C#N)c3)nn3ccc(C(=O)N[C@@H]4COC[C@@]4(C)O)nc23)cc(C)n1 : its pKi reads < 6.00

Noted for Cc1cc(-c2c(-c3cccc(C#N)c3)nn3ccc(N4CCN(S(N)(=O)=O)CC4)nc23)cc(Cl)n1 : its pKi reads < 6.00

Noted for N#Cc1c(-c2ccco2)nn2ccc(NC[C@@H]3CNCCO3)nc12 [Example 42, hydrochloride] : its pKi reads < 6.00

Noted for Cc1cc(-c2c(-c3cccc(C#N)c3)nn3ccc(C(=O)NCC4(N)CC(F)(F)C4)nc23)cc(Cl)n1 : its pKi reads < 6.00

Noted for Cc1cc(-c2c(-c3cccc(C#N)c3)nn3ccc(C(=O)NC(C)(C)CN)nc23)cc(Cl)n1 : its pKi reads < 6.00

Noted for N#Cc1c(-c2ccco2)nn2ccc(NC[C@H]3CCCN3)nc12 [Example 80, hydrochloride] : its pKi reads < 6.00

Noted for N#Cc1c(-c2ccco2)nn2ccc(N3CCN(CCc4ccccc4)CC3)nc12 : its pKi reads < 6.00

Noted for C[C@@H]1CN(c2ccn3nc(-c4ccco4)c(C#N)c3n2)CCN1 [Example 82, hydrochloride] : its pKi reads < 6.00

Noted for N#Cc1c(-c2ccco2)nn2ccc(N3CCN(c4ccccc4)CC3)nc12 : its pKi reads < 6.00

Noted for N#Cc1c(-c2ccco2)nn2ccc(NCCO)nc12 : its pKi reads 5.38

Noted for Cn1nccc1-c1c(-c2ccco2)nn2ccc(NCc3ccccc3)nc12 : its pKi reads 6.76

Noted for Cc1cc(-c2c(-c3cccc(C#N)c3)nn3ccc(NCC(N)=O)nc23)cc(Cl)n1 : its pKi reads < 6.00

Noted for Cc1cc(-c2c(-c3cccc(C#N)c3)nn3ccc(C(=O)NCC4CCCN(C)C4=O)nc23)cc(C)n1 (stereo not shown) : its pKi reads < 6.00

Noted for CN(C)C1CN(c2ccn3nc(-c4ccco4)c(C(N)=O)c3n2)C1 : its pKi reads < 6.00

Noted for CCn1ncc(C)c1-c1c(-c2cccc(C#N)c2)nn2ccc(C(=O)NCC(C)(C)O)nc12 : its pKi reads < 6.00

Noted for Cc1cc(-c2c(-c3cccc(C#N)c3)nn3ccc(N)nc23)cc(C)[n+]1[O-] : its pKi reads < 6.00

Noted for Cc1cc(-c2c(-c3cccc(C#N)c3)nn3ccc(N)nc23)cnc1N : its pKi reads 5.61

Noted for Cc1cc(-c2c(-c3cccc(C#N)c3)nn3ccc(N/C(=N\C#N)NCC(C)(C)O)nc23)cc(Cl)n1 : its pKi reads < 6.00

Noted for Cc1cc(-c2c(-c3cccc(C#N)c3)nn3ccc(NC(=O)N[C@@H]4CCNC4)nc23)cc(Cl)n1 [Example 31.3, trifluoroacetate] : its pKi reads < 6.00

Noted for Cc1cc(-c2c(-c3cccc(C#N)c3)nn3ccc(C(=O)NC4(C#N)CCNCC4)nc23)cc(Cl)n1 (single isomer, unassigned) : its pKi reads < 6.00

Noted for Cc1cc(-c2c(-c3cccc(C#N)c3)nn3ccc(C(=O)N[C@@H](C)C(C)(C)O)nc23)cc(C)n1 : its pKi reads 5.83

Noted for Cc1cc(-c2c(-c3cccc(C#N)c3)nn3ccc(N)nc23)cc(C(=O)O)n1 : its pKi reads < 6.00

Noted for Cc1cc(-c2c(-c3cccc(C#N)c3)nn3ccc(NCCN4CCOCC4)nc23)cc(Cl)n1 : its pKi reads < 6.00

Noted for CCn1nccc1-c1c(-c2cccc(C#N)c2)nn2ccc(NCc3nnc[nH]3)nc12 : its pKi reads < 6.00

Noted for N#Cc1c(-c2ccco2)nn2ccc(NC[C@H]3CNCCO3)nc12 [Example 42.1, hydrochloride] : its pKi reads < 6.00

Noted for CC(C)(C)OC(=O)N1CCC[C@H]1CNc1ccn2nc(-c3ccco3)c(C#N)c2n1 : its pKi reads 6.11

Noted for CCn1nccc1-c1c(-c2cccc(C#N)c2)nn2ccc(N3CCS(=N)(=O)CC3)nc12 : its pKi reads < 6.00

Noted for Cc1cc(-c2c(-c3cccc(C#N)c3)nn3ccc(C(=O)NCC(C)(C)O)nc23)c(F)c(C)n1 : its pKi reads < 6.00

* * *

Recorded below: pKi, system human Adenosine A1 receptor (Homo sapiens).
Kindly note that pKi refers to -log10 of the concentration in mol/L and answer with the value alone.

Here Cc1cc(-c2c(-c3cccc(C#N)c3C)nn3ccc(C(=O)N[C@@H](C)C(C)(C)O)nc23)cc(C)n1 [Example 104.1] was tested on human Adenosine A1 receptor (Homo sapiens), and its pKi came to 6.40

Here Cc1cc(-c2c(-c3cccc(C#N)c3)nn3ccc(N)nc23)cc(C(N)=O)n1 [Example 27.2] was tested on human Adenosine A1 receptor (Homo sapiens), and its pKi came to 7.77

Here Cc1cc(-c2c(-c3cccc(C#N)c3)nn3ccc(C(=O)N4CCC5(CC4)NC(=O)NC5=O)nc23)cc(C)n1 [Example 92.7] was tested on human Adenosine A1 receptor (Homo sapiens), and its pKi came to 6.80

Here Cc1cc(-c2c(-c3cccc(C#N)c3)nn3ccc(NC(=O)C(C)(C)O)nc23)cc(C)n1 [Example 94.5] was tested on human Adenosine A1 receptor (Homo sapiens), and its pKi came to 6.84

Here Cc1cc(-c2c(-c3cccc(C#N)c3)nn3ccc(C(=O)N[C@H]4COC[C@@H]4O)nc23)cc(C)n1 [Example 92.29] was tested on human Adenosine A1 receptor (Homo sapiens), and its pKi came to 6.39

Here Cc1cc(-c2c(-c3cccc(C#N)c3)nn3ccc(NCC4(O)CC4)nc23)cc(Cl)n1 [Example 3.4] was tested on human Adenosine A1 receptor (Homo sapiens), and its pKi came to 7.25

Here Cc1cc(-c2c(-c3cccc(C#N)c3)nn3ccc(NC4CCN(C)CC4)nc23)cc(Cl)n1 [Example 2.42] was tested on human Adenosine A1 receptor (Homo sapiens), and its pKi came to 6.83

* * *

Give measured Ki for each item. Keep answers brief.
Respond numerically; units are nM and should not be typed.

Here Cc1cc(-c2c(-c3cccc(C#N)c3)nn3ccc(N4CCC4C(=O)O)nc23)cc(Cl)n1 (stereo not shown) [Example 2.34] was tested on human Adenosine A2a receptor (Homo sapiens), and its Ki came to 22.5

Here CC(=O)N1CCC(Nc2ccn3nc(-c4cccc(C#N)c4)c(-c4cc(C)nc(C)c4)c3n2)CC1 [Example 105.1] was tested on human Adenosine A2a receptor (Homo sapiens), and its Ki came to 8

Here Cc1cc(-c2c(-c3cccc(C#N)c3)nn3ccc(C(=O)N[C@H]4C[C@](C)(O)C4)nc23)cc(C)n1 [Example 92.20] was tested on human Adenosine A2a receptor (Homo sapiens), and its Ki came to 1.2

Here Cc1cccnc1CN1CCN(c2ccn3nc(-c4cnco4)c(C#N)c3n2)CC1 [Example 65] was tested on human Adenosine A2a receptor (Homo sapiens), and its Ki came to 407

* * *

system: human PBMCs; assay: CD3/CD28 stimulated IL-2 release NECA reversal assay in human PBMCs; type: cell-based; conditions: PBMC, CD3/CD28 antibody stimulated, 1 uM NECA, 24 hours, IL-2 in culture supernatant;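 note: dose-response as % inhibition where 100% equals no-NECA control wells with CD3/CD28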
Give measured IC50 for each item. Keep answers brief.
In your response, put the unit directly after the numeric value.

Noted for Cc1cc(-c2c(-c3cccc(C#N)c3)nn3ccc(NC(=N)N)nc23)cc(Cl)n1 : its IC50 reads 77 nM

Noted for Cc1cc(-c2c(-c3cccc(C#N)c3)nn3ccc(C(=O)NC(C)(C)CN)nc23)cc(Cl)n1 : its IC50 reads 172 nM

Noted for Fc1cccc(-c2cc3nc(NCc4ccccc4)ccn3n2)c1 : its IC50 reads 869 nM

Noted for Cc1cc(-c2c(-c3cccc(C#N)c3)nn3ccc(OCC(C)(C)O)nc23)cc(Cl)n1 : its IC50 reads 2 nM
